FYI, the data here is from patent US20190127366A1.

Target: human complement factor D (Homo sapiens)
Construct: purchased R&D Systems 1824-SE
Experiment: In vitro enzyme inhibition (Z-Lys-SBzl/DTNB absorbance assay)
Format: biochemical
Details: Complement Factor D (R&D Systems), substrate Z-Lys-SBzl, A405 nm; read-out: CFD IC50
pIC50: −log10 of the molar value.
Please provide measured pIC50 for the entries that follow.

Solved entries (count: 3):
[
  {
    "compound": "CC(C)=C(F)C(C)NC(=O)[C@@H]1[C@H]2CC[C@H](C2)N1C(=O)Cn1nc(C(N)=O)c2ccccc21 (stereo partly shown)",
    "pIC50": "< 5.00"
  },
  {
    "compound": "O=C(O)c1nn(CC(=O)N2[C@@H]3CC[C@@H](C3)[C@H]2C(=O)Nc2cccc(Cl)n2)c2ccccc12",
    "pIC50": "< 5.00"
  },
  {
    "compound": "NC(=O)c1ccc(Cl)c(F)c1CNC(=O)[C@@H]1[C@H]2CC[C@H](C2)N1C(=O)Cn1nc(C(N)=O)c2ccccc21",
    "pIC50": "5.00 to 6.00"
  }
]

Here is the next item to consider.
The recorded pIC50 for entry NC(=O)c1nn(CC(=O)N2[C@@H]3CC[C@@H](C3)[C@H]2C(=O)NCc2cccc(Cl)c2F)c2ccc(CCO)cc12 equals 5.00 to 6.00

----------
Molecular target: human complement factor D (Homo sapiens, UniProt P00746)
Construct: purchased R&D Systems 1824-SE
Sequence (P00746 26-253): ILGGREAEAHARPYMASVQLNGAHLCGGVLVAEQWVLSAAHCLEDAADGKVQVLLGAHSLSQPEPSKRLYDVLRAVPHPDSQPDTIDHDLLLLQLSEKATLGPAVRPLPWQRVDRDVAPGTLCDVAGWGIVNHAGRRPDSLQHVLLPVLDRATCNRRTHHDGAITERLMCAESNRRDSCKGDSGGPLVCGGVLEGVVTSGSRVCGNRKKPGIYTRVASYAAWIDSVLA
Test: In vitro enzyme inhibition (Z-Lys-SBzl/DTNB absorbance assay)
Format: biochemical
Settings: Complement Factor D (R&D Systems), substrate Z-Lys-SBzl, A405 nm; read-out: CFD IC50
pIC50: −log10 of the molar value.
Please provide measured pIC50 for the entries that follow.

Solved entries (count: 3):
[
  {
    "compound": "CC(=O)c1nn(CC(=O)N2[C@@H]3CC[C@@H](C3)[C@H]2C(=O)Nc2cccc(Cl)n2)c2ccccc12 [Example 80]",
    "result": "> 7.00"
  },
  {
    "compound": "Cc1ccc2c(c1)c(C(N)=O)nn2CC(=O)N1[C@@H]2CC[C@@H](C2)[C@H]1C(=O)Nc1cccc(Cl)n1 [Example 61]",
    "result": "6.00 to 7.00"
  },
  {
    "compound": "NC(=O)c1nn(CC(=O)N2[C@@H]3CC[C@@H](C3)[C@H]2C(=O)NCc2cnc3[nH]cc(Cl)c3c2)c2ccccc12 [Example 48]",
    "result": "< 5.00"
  }
]

Here is the next item to consider.
The recorded pIC50 for entry N#Cc1ccc(Cl)nc1NC(=O)[C@@H]1[C@H]2CC[C@H](C2)N1C(=O)Cn1nc(C(N)=O)c2ccccc21 [Example 101] equals 6.00 to 7.00

----------
Target: human complement factor D (Homo sapiens)
Construct: purchased R&D Systems 1824-SE
Experiment: In vitro enzyme inhibition (Z-Lys-SBzl/DTNB absorbance assay)
Format: biochemical
Details: Complement Factor D (R&D Systems), substrate Z-Lys-SBzl, A405 nm; read-out: CFD IC50
Description: The ability of the compounds disclosed herein to inhibit human complement factor D inhibitory activity was quantified according to the 12-step protocol provided below. • 1. Prepare assay buffer: 50 mM Tris/HCl, pH 7.5, 1 M NaCl. • 2. […] For kinetic reading: Immediately start measuring absorbance (A405 nm) continuously and record data every 30sec for 60 min. • 12. Data analysis • Inhibition activity of compound was evaluated by IC50. […]
pIC50: −log10 of the molar value.
parameter: pIC50

Solved entries (count: 3):
[
  {
    "compound": "NC(=O)c1nn(CC(=O)N2[C@@H]3CC[C@@H](C3)[C@H]2C(=O)Nc2cccc(Cl)n2)c2cc(CO)ccc12",
    "pIC50": "6.00 to 7.00"
  },
  {
    "compound": "NCC(NC(=O)[C@@H]1[C@H]2CC[C@H](C2)N1C(=O)Cn1nc(C(N)=O)c2ccccc21)c1cccc(Cl)c1F (some centres unmarked)",
    "pIC50": "< 5.00"
  },
  {
    "compound": "NC(=O)c1nn(CC(=O)N2C(C(=O)NCc3cccc(Cl)c3F)[C@@H]3C[C@@H](O)[C@H]2[C@H]3O)c2ccccc12 (some centres unmarked)",
    "pIC50": "6.00 to 7.00"
  }
]

Required: pIC50, one value per compound below.
1. NC(=O)c1nn(CC(=O)N2[C@@H]3CC[C@@H](C3)[C@H]2C(=O)Nc2cnc3ccccc3n2)c2ccccc12
2. CC(=O)c1nn(CC(=O)N2[C@@H]3CC[C@@H](C3)[C@H]2C(=O)Nc2cccc(Cl)n2)c2ccc(C)cc12
3. NC(=O)c1nn(CC(=O)N2[C@H](C(=O)Nc3cccc(Cl)n3)C[C@@H]3CCC[C@@H]32)c2cnccc12
4. Cc1ccc(NC(=O)[C@@H]2[C@H]3CC[C@H](C3)N2C(=O)Cn2nc(C(N)=O)c3ccccc32)nc1Cl [Example 68, 2,2,2-trifluoroacetate]
5. NC(=O)c1nn(CC(=O)N2[C@H]3CC[C@H](C3)[C@@H]2C(=O)Nc2cccc(Cl)n2)c2ccccc12

1. 5.00 to 6.00
2. 6.00 to 7.00
3. 6.00 to 7.00
4. 6.00 to 7.00
5. 6.00 to 7.00

Required: pIC50, one value per compound below.
1. COC(=O)c1cc(Cl)c(F)c(CNC(=O)[C@@H]2[C@H]3CC[C@H](C3)N2C(=O)Cn2nc(C(N)=O)c3ccccc32)c1
2. NC(=O)c1nn(CC(=O)N2CCCC[C@H]2C(=O)Nc2cccc(Cl)n2)c2ccccc12
3. NC(=O)c1nn(CC(=O)N2[C@@H]3CC[C@@H](C3)[C@H]2C(=O)NCc2c(CO)ccc(Cl)c2F)c2ccccc12
4. CC(O)c1nn(CC(=O)N2CC[C@H]2C(=O)NCc2cccc(Cl)c2F)c2ccccc12 (some centres unmarked)
5. N#Cc1ccc2c(c1)c(C(N)=O)nn2CC(=O)N1[C@H](C(=O)Nc2cccc(Cl)n2)C[C@@H]2CCC[C@@H]21
6. CC(=O)N1CCN(C(=O)Cn2nc(C(N)=O)c3ccccc32)[C@H](C(=O)Nc2cccc(Cl)n2)C1
7. CC(=O)c1nn(CC(=O)N2CC[C@H]2C(=O)NCc2cccc(Cl)c2F)c2ccccc12
8. NC(=O)c1nn(CC(=O)N2[C@H](C(=O)Nc3cccc(Br)n3)C[C@@H]3CCC[C@@H]32)c2ccccc12

1. 5.00 to 6.00
2. 6.00 to 7.00
3. 5.00 to 6.00
4. 5.00 to 6.00
5. 6.00 to 7.00
6. 5.00 to 6.00
7. > 7.00
8. 6.00 to 7.00

Required: pIC50, one value per compound below.
1. NC(=O)c1nn(CC(=O)N2[C@@H]3CC[C@@H](C3)[C@H]2C(=O)NC(CC(=O)O)c2cccc(Cl)c2F)c2ccccc12 (some centres unmarked)
2. COC(=O)Cc1ccc2c(C(N)=O)nn(CC(=O)N3[C@@H]4CC[C@@H](C4)[C@H]3C(=O)NCc3cccc(Cl)c3F)c2c1
3. NC(=O)c1nn(CC(=O)N2[C@@H]3CC[C@@H](C3)[C@H]2C(=O)Nc2cc(Cl)ccn2)c2ccccc12

1: 5.00 to 6.00; 2: 5.00 to 6.00; 3: 5.00 to 6.00

The recorded pIC50 for entry NC(=O)c1nn(CC(=O)N2[C@@H]3CC[C@@H](C3)[C@H]2C(=O)Nc2cccc(Cl)n2)c2cc(N)ccc12 [Example 93, 2,2,2-trifluoroacetate] equals 6.00 to 7.00
